# Test system: MCF7
# assay: Antiproliferative activity against human MCF7 cell line by MTT assay
# Format: functional, cell-based
measurement-kind: IC50

Q: Record request: IC50 value, item CCCCc1ccc[n+](CC(O)(P(=O)([O-])O)P(=O)(O)O)c1 (stereo not given)
Result: 21.4 µM

Q: Record request: IC50 value, item `CC(C)OC(=O)OCOP(=O)(OCOC(=O)OC(C)C)C(Cc1ccc(Cl)c(Cl)c1)P(=O)(OCOC(=O)OC(C)C)OCOC(=O)OC(C)C`
Result: 1.97 µM

Q: Record request: IC50 value, item O=P([O-])(O)C(C[n+]1ccccc1)P(=O)(O)O (stereo not given)
Result: 72.3 µM

Q: Record request: IC50 value, item `O=P(O)(O)C(O)(c1cccc(-c2cccc(-c3ccccc3)c2)c1)P(=O)(O)O`
Result: 310 µM

Q: Record request: IC50 value, item `O=P(O)(O)C(Nc1ncccc1OCc1ccccc1)P(=O)(O)O`
Result: 339 µM

Q: Record request: IC50 value, item O=P([O-])(O)C(C[n+]1cccc(Br)c1)P(=O)(O)O (stereo not given)
Result: 143 µM

Q: Record request: IC50 value, item `O=P(O)(O)C(CNc1ccncc1)P(=O)(O)O`
Result: 22.7 µM

Q: Record request: IC50 value, item `O=P(O)(O)C(O)(CCc1cccc(-c2cccc(-c3ccccc3)c2)c1)P(=O)(O)O`
Result: 43.9 µM

Q: Record request: IC50 value, item Cc1ccc2ccc[n+](CC(O)(P(=O)([O-])O)P(=O)(O)O)c2c1 (stereo not given)
Result: 289 µM

Q: Record request: IC50 value, item O=P([O-])(O)C(C[n+]1cccc(-c2ccccc2)c1)P(=O)(O)O (stereo not given)
Result: 34.6 µM

====

# System: 13762
# assay: Antiproliferative activity against rat 13762 cell line
# Format: functional, cell-based
measurement-kind: IC50 (µM)
Give your result in µM as a bare value.

Q: Record request: IC50 value, item NCCC(O)(P(=O)(O)O)P(=O)(O)O [PAMIDRONIC ACID]
Result: 33.6

====

# Tested on: NCI-H460
# assay: Antiproliferative activity against human NCI-H460 cell line by MTT assay
# Type: functional, cell-based
Field: label. Allowed values: y (IC50 < 70 µM) or n (IC50 >= 70 µM).

Q: Does the reported IC50 of the following compound sit strictly below 70 µM? `CC(C)(C)C(=O)OCOP(=O)(OCOC(=O)C(C)(C)C)C(CNc1ccccn1)P(=O)(OCOC(=O)C(C)(C)C)OCOC(=O)C(C)(C)C`
Result: y

Q: Does the reported IC50 of the following compound sit strictly below 70 µM? Cc1ccc2ccc[n+](CC(O)(P(=O)([O-])O)P(=O)(O)O)c2c1 (stereo not given)
Result: n

Q: Does the reported IC50 of the following compound sit strictly below 70 µM? `O=P(O)(O)C(Cc1ccc(Br)c(Br)c1)P(=O)(O)O`
Result: n

Q: Does the reported IC50 of the following compound sit strictly below 70 µM? `CC(C)OC(=O)OCOP(=O)(OCOC(=O)OC(C)C)C(Cc1ccc(F)c(F)c1)P(=O)(OCOC(=O)OC(C)C)OCOC(=O)OC(C)C`
Result: y

Q: Does the reported IC50 of the following compound sit strictly below 70 µM? Cc1ccc[n+](CC(O)(P(=O)([O-])O)P(=O)(O)O)c1 (stereo not given)
Result: y

Q: Does the reported IC50 of the following compound sit strictly below 70 µM? `O=P(O)(O)C(CNc1ccccn1)P(=O)(O)O`
Result: y

Q: Does the reported IC50 of the following compound sit strictly below 70 µM? O=P([O-])(O)C(C[n+]1cccc(-c2ccccc2)c1)P(=O)(O)O (stereo not given)
Result: y

Q: Does the reported IC50 of the following compound sit strictly below 70 µM? O=P([O-])(O)C(O)(C[n+]1cccc(F)c1)P(=O)(O)O (stereo not given)
Result: y

Q: Does the reported IC50 of the following compound sit strictly below 70 µM? O=P([O-])(O)C(O)(C[n+]1cccc(-c2ccc(F)cc2)c1)P(=O)(O)O (stereo not given)
Result: y

Q: Does the reported IC50 of the following compound sit strictly below 70 µM? `O=P(O)(O)C(O)(CCc1cccc(-c2cccc(-c3ccccc3)c2)c1)P(=O)(O)O`
Result: y

Q: Does the reported IC50 of the following compound sit strictly below 70 µM? O=P([O-])(O)C(C[n+]1ccc2ccccc2c1)P(=O)(O)O (stereo not given)
Result: n

Q: Does the reported IC50 of the following compound sit strictly below 70 µM? O=P([O-])(O)C(C[n+]1cccc(C(F)(F)F)c1)P(=O)(O)O (stereo not given)
Result: n

Q: Does the reported IC50 of the following compound sit strictly below 70 µM? Cc1ccc[n+](CC(P(=O)([O-])O)P(=O)(O)O)c1 (stereo not given)
Result: y

Q: Does the reported IC50 of the following compound sit strictly below 70 µM? `O=P(O)(O)C(O)(Cc1cccc(-c2cccc(-c3ccccc3)c2)c1)P(=O)(O)O`
Result: n

Q: Does the reported IC50 of the following compound sit strictly below 70 µM? O=P([O-])(O)C(C[n+]1cccc(Cl)c1)P(=O)(O)O (stereo not given)
Result: y

Q: Does the reported IC50 of the following compound sit strictly below 70 µM? O=P([O-])(O)C(O)(C[n+]1cccc(-c2ccccc2)c1)P(=O)(O)O (stereo not given)
Result: y

Q: Does the reported IC50 of the following compound sit strictly below 70 µM? O=P([O-])(O)C(O)(C[n+]1cccc(-c2ccc(C(F)(F)F)cc2)c1)P(=O)(O)O (stereo not given)
Result: y

Q: Does the reported IC50 of the following compound sit strictly below 70 µM? `O=P(O)(O)C(O)(CCc1cccc(-c2ccccc2-c2ccccc2)c1)P(=O)(O)O`
Result: n

Q: Does the reported IC50 of the following compound sit strictly below 70 µM? `O=P(O)(O)C(O)(Cc1ccc(-c2ccccc2-c2ccccc2)cc1)P(=O)(O)O`
Result: n

====

For each of the compounds below, state its IC50.
# Tested on: NCI-H460
# assay: Antiproliferative activity against human NCI-H460 cell line by MTT assay
# Assay type: functional, cell-based

Q: Record request: IC50 value, item O=P([O-])(O)C(C[n+]1ccc(C(F)(F)F)cc1)P(=O)(O)O (stereo not given)
Result: > 10 mM

Q: Record request: IC50 value, item O=P([O-])(O)C(C[n+]1ccc(-c2cccc(-c3ccccc3)c2)cc1)P(=O)(O)O (stereo not given)
Result: > 10 mM

Q: Record request: IC50 value, item O=P([O-])(O)C(O)(C[n+]1ccc(-c2ccncc2)cc1)P(=O)(O)O (stereo not given)
Result: > 10 mM

Q: Record request: IC50 value, item NCCC(O)(P(=O)(O)O)P(=O)(O)O [PAMIDRONIC ACID]
Result: 0.0718 mM

Q: Record request: IC50 value, item O=P([O-])(O)C(C[n+]1cccc(S(=O)(=O)N2CCCC2)c1)P(=O)(O)O (stereo not given)
Result: > 10 mM

====

# Tested on: MCF7
# assay: Antiproliferative activity against human MCF7 cell line by MTT assay
# Format: functional, cell-based
For each of the compounds below, state its pIC50.
pIC50 here is simply -log10 of the concentration when that concentration is written in mol/L.

Q: Record request: pIC50 value, item O=P([O-])(O)C(O)(C[n+]1cccc(Cl)c1)P(=O)(O)O (stereo not drawn)
Result: 3.92

Q: Record request: pIC50 value, item O=P([O-])(O)C(O)(C[n+]1ccccc1)P(=O)(O)O (stereo not drawn)
Result: 4.10

Q: Record request: pIC50 value, item CCC(C)CNC(P(=O)(O)O)P(=O)(O)O (stereo not drawn)
Result: 3.35
